# Subject Of Test: LsrK (Salmonella typhimurium)
# Sequence (Q8ZKQ6 whole entry): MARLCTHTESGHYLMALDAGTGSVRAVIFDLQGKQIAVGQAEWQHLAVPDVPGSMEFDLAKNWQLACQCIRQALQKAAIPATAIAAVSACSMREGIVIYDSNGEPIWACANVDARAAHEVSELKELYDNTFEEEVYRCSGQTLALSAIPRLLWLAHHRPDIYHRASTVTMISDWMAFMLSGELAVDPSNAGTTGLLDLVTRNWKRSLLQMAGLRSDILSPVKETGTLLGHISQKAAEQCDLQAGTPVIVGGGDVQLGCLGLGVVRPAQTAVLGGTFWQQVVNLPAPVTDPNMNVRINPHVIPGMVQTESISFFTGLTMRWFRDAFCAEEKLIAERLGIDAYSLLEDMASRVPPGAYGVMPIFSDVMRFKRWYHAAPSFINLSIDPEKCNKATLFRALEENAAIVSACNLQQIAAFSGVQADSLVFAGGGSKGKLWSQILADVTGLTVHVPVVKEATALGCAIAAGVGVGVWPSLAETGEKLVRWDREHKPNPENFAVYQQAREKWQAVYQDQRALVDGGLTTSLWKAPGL
# Method Summary: biochemical
# Assay type: biochemical, S. typhimurium
# Condition: 50 µM
Record true (1) whenever Inhibition (%) is at 5 or higher; record false (0) when lower.

# Substance, Class Label
measured = [
    ("AGELASINE", "true (1)"),
    ("ASARININ (-)", "false (0)"),
    ("IVERMECTIN", "false (0)"),
    ("GRAMICIDIN", "false (0)"),
    ("BENZALKONIUM CHLORIDE", "true (1)"),
    ("MECLOCYCLINE SULFOSALICYLATE", "true (1)"),
    ("KHAYANTHONE", "true (1)"),
    ("GARLICIN", "true (1)"),
]

Determine whether measured Inhibition (%) meets or exceeds 5 for 3-BROMO-4-METHYL-3.4-HEXAMETHYLENE-3.4-DIHYDRODIAZETE-1.2-DIOXIDE
false (0)

Quick check, Inhibition (%) >= 5? TANNIC ACID
true (1)
